Molecular target: human BKαβ1 channels (Homo sapiens, UniProt Q12791)
Construct: expressed in transfected cells; host or cells: CHO cells (G418 and hygromycin selection)
Sequence (Q12791 whole entry): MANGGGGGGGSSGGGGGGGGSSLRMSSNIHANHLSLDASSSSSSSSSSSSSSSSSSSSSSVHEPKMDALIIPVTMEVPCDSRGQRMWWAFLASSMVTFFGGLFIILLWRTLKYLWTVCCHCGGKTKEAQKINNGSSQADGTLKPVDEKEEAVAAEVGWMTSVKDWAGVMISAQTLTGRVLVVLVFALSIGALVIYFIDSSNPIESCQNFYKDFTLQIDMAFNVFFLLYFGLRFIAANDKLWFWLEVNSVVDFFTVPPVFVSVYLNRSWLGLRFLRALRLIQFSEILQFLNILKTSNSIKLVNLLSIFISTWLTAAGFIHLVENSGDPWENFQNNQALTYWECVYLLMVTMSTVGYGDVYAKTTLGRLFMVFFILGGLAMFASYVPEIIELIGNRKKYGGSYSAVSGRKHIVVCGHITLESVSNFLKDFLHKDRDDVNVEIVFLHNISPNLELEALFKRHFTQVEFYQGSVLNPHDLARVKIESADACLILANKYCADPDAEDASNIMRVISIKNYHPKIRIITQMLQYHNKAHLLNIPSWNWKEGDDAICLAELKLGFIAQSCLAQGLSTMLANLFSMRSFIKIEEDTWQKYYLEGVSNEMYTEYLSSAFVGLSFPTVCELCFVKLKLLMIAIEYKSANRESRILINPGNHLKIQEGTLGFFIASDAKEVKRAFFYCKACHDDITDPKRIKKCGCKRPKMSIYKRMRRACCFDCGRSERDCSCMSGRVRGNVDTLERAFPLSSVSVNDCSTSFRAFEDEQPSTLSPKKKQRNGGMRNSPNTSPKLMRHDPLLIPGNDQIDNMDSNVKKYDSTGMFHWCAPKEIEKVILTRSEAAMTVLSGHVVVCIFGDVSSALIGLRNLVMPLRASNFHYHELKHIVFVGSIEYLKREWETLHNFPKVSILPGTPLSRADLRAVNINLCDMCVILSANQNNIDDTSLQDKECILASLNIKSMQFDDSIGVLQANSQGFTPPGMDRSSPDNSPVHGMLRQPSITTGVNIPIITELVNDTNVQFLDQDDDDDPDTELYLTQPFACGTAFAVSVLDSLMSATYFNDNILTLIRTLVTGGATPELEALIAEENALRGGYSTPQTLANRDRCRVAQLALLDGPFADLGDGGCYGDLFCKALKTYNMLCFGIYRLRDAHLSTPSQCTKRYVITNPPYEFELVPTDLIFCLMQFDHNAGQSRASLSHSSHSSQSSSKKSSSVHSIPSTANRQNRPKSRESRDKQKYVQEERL
Sequence (Q16558 whole entry partner): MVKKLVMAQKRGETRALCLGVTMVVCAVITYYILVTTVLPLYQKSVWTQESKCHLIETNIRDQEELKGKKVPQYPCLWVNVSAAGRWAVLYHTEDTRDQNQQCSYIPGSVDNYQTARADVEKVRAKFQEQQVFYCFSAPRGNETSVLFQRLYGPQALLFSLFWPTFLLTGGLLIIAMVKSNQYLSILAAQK
Test: BK current in CHO cells expressing human BKαβ1 (PatchXpress whole-cell patch clamp), EC100
Format: cell-based
Details: drug concentration causing 100% increase of BK current
Method: Methods for Testing Compounds on Human BKαβ1 Channels Expressed Cho Cells CHO cells expressing human BKαβ1 were cultured in T75 or 6 well cell culture cluster. Medium: DMEM/F12+10% FBS+0.5 mg/mL G418/genetecin+0.1 mg/mL Hygromycin. […] PatchXpress Sealchip 16 electrodes (AVIVA Biosciences) and PatchXpress 7000A (Axon Instruments, Inc) were used for BK current recording. […] Control bath solution was added with robotic pipette and control BK current was recorded after 1 minute equilibrium time. […]
Recorded EC100 for the following molecules
endpoint: EC100

molecule="O=C([O-])C1(Oc2cc(-c3cccc(C(F)(F)F)c3)nc(-c3ccc(Cl)c(F)c3)n2)CC1.[Na+] [Example 555]" study_target="human BKαβ1 channels (Homo sapiens, UniProt Q12791)" endpoint=EC100 result="0.3 µM"
molecule=CCOc1cccc(-c2cc(OC3(C(=O)[O-])CC3)nc(-c3ccc(Cl)c(F)c3)n2)c1.[Na+] study_target="human BKαβ1 channels (Homo sapiens, UniProt Q12791)" endpoint=EC100 result="0.1 µM"
molecule=Cc1c(OC2(C(=O)O)CC2)nc(-c2ccc(Cl)cc2)nc1-c1ccc(F)cc1 study_target="human BKαβ1 channels (Homo sapiens, UniProt Q12791)" endpoint=EC100 result="0.34 µM"
molecule=CCC(CC)(Oc1cc(N2CCC[C@H]2COC)nc(-c2ccc(Cl)c(F)c2)n1)C(=O)[O-].[Na+] study_target="human BKαβ1 channels (Homo sapiens, UniProt Q12791)" endpoint=EC100 result="0.14 µM"
molecule=COc1cc(F)cc(-c2cc(OC3(C(=O)[O-])CCOCC3)nc(-c3ccc(Cl)c(F)c3)n2)c1.[Na+] study_target="human BKαβ1 channels (Homo sapiens, UniProt Q12791)" endpoint=EC100 result="0.05 µM"

The reported numbers originate from patent US8575338B2.
